Reported Tmax by item:
- assay-name: Plasma nutrikinetics of flavanol metabolites after a single serving of soluble cocoa product (HPLC-ESI-QToF-MS)
- Assay type: in vivo, human
- details: both sexes, oral, 19.8 mg; human plasma, after CC (19.80 mg flavanols), mean ± SD, n = 13; read-out: Tmax

{"columns": ["molecule", "Tmax / h"],
 "data": [
  ["O=C(O)C1OC(Oc2cc(C3Oc4cc(O)cc(O)c4CC3O)ccc2O)C(O)C(O)C1O (stereo not drawn) [Epicatechin-3′-glucuronide]", 1.5],
  ["O=C1CCC(Cc2ccc(O)c(O)c2)O1 (stereo not drawn)", 6],
  ["O=S(=O)(O)Oc1cc([C@H]2Oc3cc(O)cc(O)c3C[C@H]2O)ccc1O [Epicatechin-3′-sulfate]", 1],
  ["COc1cc([C@H]2Oc3cc(O)cc(OS(=O)(=O)O)c3C[C@H]2O)ccc1O (single isomer, unassigned) [Epicatechin-methoxy-sulfate (isomer 1), Epicatechin-methoxy-sulfate]", 1.3],
  ["O=C1CCC(Cc2ccc(O)c(OC3OC(C(=O)O)C(O)C(O)C3O)c2)O1 (stereo not drawn) [HPVL-3′-glucuronide]", 5.6]
]}

---

- assay-name: Urinary excretion of flavanol metabolites (0-24 h) after a single serving of soluble cocoa product (HPLC-ESI-QToF-MS)
- Type: in vivo, human
- details: after CC (19.80 mg flavanols), 24 h urine, mean ± SD, n = 13
- Source text: They were non-smoker, non-vegetarian, non-pregnant women, who were not taking any medication or nutritional supplements, and were not suffering from any chronic pathology or gastrointestinal disorder. The sample size was estimated attending to similar previous bioavailability studies. […] Due to the lack of standards for certain phase II metabolites, they were tentatively quantified using the calibration curves of their corresponding phenolic precursors. […]

{"columns": ["molecule", "Excreted in urine, Total"],
 "data": [
  ["O=S(=O)(O)Oc1cc([C@H]2Oc3cc(O)cc(O)c3C[C@H]2O)ccc1O [Epicatechin-3′-sulfate]", "2.417 ± 0.439 µmol"],
  ["O=C(O)CCc1ccc(O)c(O)c1 [3,4-Dihydroxyphenylpropionic acid]", "0.866 ± 0.148 µmol"],
  ["O=C1CCC(Cc2cccc(OS(=O)(=O)O)c2)O1 (stereo not shown) [PVL-3′-sulfate, 5-Phenyl-γ-valerolactone-3′-sulfate]", "1.691 ± 0.802 µmol"],
  ["O=C(O)c1ccc(O)c(O)c1 [Protocatechuic acid, 3,4-Dihydroxybenzoic acid]", "0.959 ± 0.217 µmol"],
  ["O=C(O)CCc1ccc(O)cc1 [Hydroxyphenylpropionic acid]", "0.883 ± 0.154 µmol"],
  ["O=C(O)C1OC(Oc2cc(C3Oc4cc(O)cc(O)c4CC3O)ccc2O)C(O)C(O)C1O (stereo not shown) [Epicatechin-3′-glucuronide]", "0.622 ± 0.130 µmol"],
  ["COc1cc([C@H]2Oc3cc(O)cc(OS(=O)(=O)O)c3C[C@H]2O)ccc1O (single isomer, unassigned) [Epicatechin-methoxy-sulfate (isomer 1), Epicatechin-methoxy-sulfate]", "4.428 ± 0.800 µmol"],
  ["COc1cc(CC(=O)O)ccc1O [3-Methoxy-4-hydroxyphenylacetic acid]", "0.398 ± 0.118 µmol"],
  ["O=C(O)Cc1ccc(O)c(O)c1 [3,4-Dihydroxyphenylacetic acid]", "1.525 ± 0.974 µmol"],
  ["O=C1CCC(Cc2cccc(OC3OC(C(=O)O)C(O)C(O)C3O)c2)O1 (stereo not shown) [PVL-3′glucuronide, 5-Phenyl-γ-valerolactone-3′-glucuronide]", "0.438 ± 0.255 µmol"],
  ["COc1cc(CCC(=O)O)ccc1O [3-Methoxy-4-hydroxyphenylpropionic acid]", "0.248 ± 0.071 µmol"],
  ["O=C(O)Cc1cccc(O)c1 [Hydroxyphenylacetic acid, 3-Hydroxyphenylacetic acid]", "2.208 ± 0.328 µmol"],
  ["COc1cc([C@H]2Oc3cc(OS(=O)(=O)O)cc(O)c3C[C@H]2O)ccc1O (single isomer, unassigned) [Epicatechin-methoxy-sulfate (isomer 2), Epicatechin-methoxy-sulfate]", "0.428 ± 0.062 µmol"],
  ["O=C(O)CCC(O)Cc1ccc(O)c(O)c1 (stereo not shown) [HDHPVA]", "<L.Q."],
  ["COc1ccc(/C=C/C(=O)O)cc1O [Isoferulic acid]", "0.522 ± 0.290 µmol"],
  ["O=C1CCC(Cc2ccc(O)c(O)c2)O1 (stereo not shown) [DHPVL]", "0.146 ± 0.032 µmol"],
  ["O=C1CCC(Cc2ccc(O)c(OC3OC(C(=O)O)C(O)C(O)C3O)c2)O1 (stereo not shown) [HPVL-3′-glucuronide]", "0.600 ± 0.232 µmol"],
  ["COc1ccc([C@H]2Oc3cc(O)cc(OS(=O)(=O)O)c3C[C@H]2O)cc1O (single isomer, unassigned) [Epicatechin-methoxy-sulfate (isomer 3), Epicatechin-methoxy-sulfate]", "0.758 ± 0.125 µmol"]
]}

---

- assay-name: Urinary excretion of flavanol metabolites (0-24 h) after a single serving of soluble cocoa product (HPLC-ESI-QToF-MS)
- Assay type: in vivo, human
- details: CC intervention, basal urine (−2–0 h, before intake), mean ± SD, n = 13
reported-property: Excreted in urine, Basal

{"columns": ["molecule", "endpoint-result"],
 "data": [
  ["COc1cc(CCC(=O)O)ccc1O [3-Methoxy-4-hydroxyphenylpropionic acid]", "0.104 ± 0.027 µmol"],
  ["O=C(O)c1ccc(O)c(O)c1 [Protocatechuic acid, 3,4-Dihydroxybenzoic acid]", "0.161 ± 0.071 µmol"],
  ["O=C1CCC(Cc2ccc(O)c(OC3OC(C(=O)O)C(O)C(O)C3O)c2)O1 (stereo not drawn) [HPVL-3′-glucuronide]", "<L.Q."]
]}

---

- assay-name: Plasma nutrikinetics of flavanol metabolites after a single serving of soluble cocoa product (HPLC-ESI-QToF-MS)
- Assay type: in vivo, human
- details: both sexes, oral; human plasma, after CC (15 g in 200 mL semi-skimmed milk, 19.80 mg flavanols), mean ± SD, n = 13; read-out: Cmax
reported-property: Cmax

{"columns": ["compound", "endpoint-result"],
 "data": [
  ["O=S(=O)(O)Oc1cc([C@H]2Oc3cc(O)cc(O)c3C[C@H]2O)ccc1O [Epicatechin-3′-sulfate]", "26 nM"],
  ["COc1cc([C@H]2Oc3cc(O)cc(OS(=O)(=O)O)c3C[C@H]2O)ccc1O (single isomer, unassigned) [Epicatechin-methoxy-sulfate (isomer 1), Epicatechin-methoxy-sulfate]", "31 nM"],
  ["O=C1CCC(Cc2ccc(O)c(O)c2)O1 (centres unmarked)", "35 nM"],
  ["O=C1CCC(Cc2ccc(O)c(OC3OC(C(=O)O)C(O)C(O)C3O)c2)O1 (centres unmarked) [HPVL-3′-glucuronide]", "31 nM"],
  ["O=C(O)C1OC(Oc2cc(C3Oc4cc(O)cc(O)c4CC3O)ccc2O)C(O)C(O)C1O (centres unmarked) [Epicatechin-3′-glucuronide]", "25 nM"]
]}

---

- assay-name: Urinary excretion of flavanol metabolites (0-24 h) after a single serving of soluble cocoa product (HPLC-ESI-QToF-MS)
- Type: in vivo, human
- details: after CC-PP (68.25 mg flavanols), mean ± SD, n = 13

{"columns": ["molecule", "Excreted in urine, 12–24 h"],
 "data": [
  ["COc1ccc([C@H]2Oc3cc(O)cc(OS(=O)(=O)O)c3C[C@H]2O)cc1O (single isomer, unassigned) [Epicatechin-methoxy-sulfate (isomer 3), Epicatechin-methoxy-sulfate]", "<L.Q."],
  ["COc1cc([C@H]2Oc3cc(OS(=O)(=O)O)cc(O)c3C[C@H]2O)ccc1O (single isomer, unassigned) [Epicatechin-methoxy-sulfate (isomer 2), Epicatechin-methoxy-sulfate]", "<L.Q."],
  ["O=C(O)c1ccc(O)c(O)c1 [Protocatechuic acid, 3,4-Dihydroxybenzoic acid]", "0.127 ± 0.015 µmol"],
  ["O=C(O)C1OC(Oc2cc(C3Oc4cc(O)cc(O)c4CC3O)ccc2O)C(O)C(O)C1O (stereo not shown) [Epicatechin-3′-glucuronide]", "<L.Q."]
]}

---

Reported Excreted in urine, 12–24 h by item:
- assay-name: Urinary excretion of flavanol metabolites (0-24 h) after a single serving of soluble cocoa product (HPLC-ESI-QToF-MS)
- Assay type: in vivo, human
- details: after CC (19.80 mg flavanols), mean ± SD, n = 13

{"columns": ["compound", "Excreted in urine, 12–24 h [µmol]"],
 "data": [
  ["O=C(O)Cc1ccc(O)c(O)c1 [3,4-Dihydroxyphenylacetic acid]", 0.133],
  ["O=C(O)c1ccc(O)c(O)c1 [Protocatechuic acid, 3,4-Dihydroxybenzoic acid]", 0.104],
  ["O=C1CCC(Cc2cccc(OC3OC(C(=O)O)C(O)C(O)C3O)c2)O1 (stereo not shown) [PVL-3′glucuronide, 5-Phenyl-γ-valerolactone-3′-glucuronide]", 0.079]
]}

---

Reported Excreted in urine, 4–8 h by item:
- assay-name: Urinary excretion of flavanol metabolites (0-24 h) after a single serving of soluble cocoa product (HPLC-ESI-QToF-MS)
- Assay type: in vivo, human
- details: after CC-PP (68.25 mg flavanols), mean ± SD, n = 13

{"columns": ["compound", "unit-name", "Excreted in urine, 4–8 h"],
 "data": [
  ["O=C1CCC(Cc2cccc(OS(=O)(=O)O)c2)O1 (stereo not shown) [PVL-3′-sulfate, 5-Phenyl-γ-valerolactone-3′-sulfate]", "µmol", 4.188],
  ["COc1ccc([C@H]2Oc3cc(O)cc(OS(=O)(=O)O)c3C[C@H]2O)cc1O (single isomer, unassigned) [Epicatechin-methoxy-sulfate (isomer 3), Epicatechin-methoxy-sulfate]", "µmol", 0.652],
  ["COc1cc([C@H]2Oc3cc(OS(=O)(=O)O)cc(O)c3C[C@H]2O)ccc1O (single isomer, unassigned) [Epicatechin-methoxy-sulfate (isomer 2), Epicatechin-methoxy-sulfate]", "µmol", 0.557]
]}
